The reported measurements were obtained from PubChem BioAssay (NCATS).

- assayed target: Cellular tumor antigen p53 (Homo sapiens) (UniProt P04637)
- Sequence (P04637 whole entry, looked up): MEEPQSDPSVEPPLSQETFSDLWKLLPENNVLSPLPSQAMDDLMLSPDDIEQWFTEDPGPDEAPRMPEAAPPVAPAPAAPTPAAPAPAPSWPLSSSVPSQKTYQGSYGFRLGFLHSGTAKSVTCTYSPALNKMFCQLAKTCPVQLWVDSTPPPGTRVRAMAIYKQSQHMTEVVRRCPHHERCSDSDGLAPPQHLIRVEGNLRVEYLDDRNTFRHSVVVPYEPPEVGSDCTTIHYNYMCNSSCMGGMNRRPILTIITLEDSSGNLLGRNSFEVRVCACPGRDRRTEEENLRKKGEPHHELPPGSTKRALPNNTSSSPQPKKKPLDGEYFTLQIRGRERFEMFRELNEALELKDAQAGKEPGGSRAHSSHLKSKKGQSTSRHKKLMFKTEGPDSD
- assay name: Primary qHTS for small molecule compounds that upregulate eGFP-tagged delta133p53alpha (in N-terminal) cells. (AID 2060322);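 further: cells pre-induced with doxycycline then dosed without doxycycline; series mostly up to about 56 µM; 0% = DMSO vehicle and 100% = reference activator; nearly all actives have a fitted effect of over 75% in size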
- condition label: NCI-H358 eGFP-delta133p53alpha fluorescence, 24 h; active compounds read high
Records with an inconclusive call do not appear.
experimental endpoint: activation (%)
Expressed in %, but write only the number.

Reference set, count: 5
# compound, experimental endpoint, unit info, assay result
rows = [
    ("CCOC(=O)NNc1nncc2ccccc12", "activation", "%", 20.1),
    ("OC[C@H]1O[C@@H](OCCc2ccccc2)[C@H](O[C@@H]2OC[C@](O)(CO)[C@H]2O)[C@@H](O)[C@@H]1O", "activation", "%", -4.58),
    ("C[C@@H]1O[C@@H](O[C@H]2[C@@H]3C=CO[C@@H](O[C@@H]4O[C@H](CO)[C@@H](O)[C@H](O)[C@H]4O)[C@@H]3[C@@]3(CO)O[C@@H]23)[C@H](O)[C@H](OC(=O)/C=C/c2ccc(O)cc2)[C@H]1OC(=O)/C=C/c1ccc(O)cc1", "activation", "%", -13),
    ("C/C=C/C=C/C=C/C(=O)OC1C=C(C=O)C(O)(C(=O)O)C2(C)CCCC(C)(C)C12 (stereo unspecified)", "activation", "%", -9.92),
    ("CCC(C)C(=O)O[C@H]1[C@@H](OC(=O)c2ccoc2)C[C@](C)(O)[C@]23OC(C)(C)[C@H](C[C@H](OC(=O)c4ccoc4)[C@]12COC(C)=O)[C@H]3OC(C)=O (stereo partly specified)", "activation", "%", 17.6),
]

Given item CCC/C=C/C=C/C1CC(O)C2(O)C(=O)OCC12 (stereo unspecified) , the value recorded as its activation is 6.11

Given item CC1(C)CCC2(C(=O)OC3OCC(O)C(O)C3O)CCC3(C)C(=CCC4C5(C)CC(O)C(OC6OC(COC7OCC(O)C(O)C7O)C(O)C(O)C6O)C(C)(C)C5CCC43C)C2C1 (stereo unspecified) , the value recorded as its activation is 4.46

Given item CC(NC(CCc1ccccc1)C(=O)O)C(=O)N1C(=O)N(C)CC1C(=O)O (stereo unspecified) , the value recorded as its activation is -13.4

Given item NC(=O)c1cccc2[nH]c(-c3ccc(C4CCCN4)cc3F)nc12 (stereo unspecified) , the value recorded as its activation is 0

Given item CC1C(OC(=O)c2ccccc2)C(O)C2C(C(=O)O)=COC(OC3OC(CO)C(O)C(O)C3O)C12 (stereo unspecified) , the value recorded as its activation is -16

Given item O=S(=O)(O)CCSSCCS(=O)(=O)O , the value recorded as its activation is -2.01

Given item O=c1cc(N2CCOCC2)oc2c(-c3cccc4c3sc3ccccc34)cccc12 , the value recorded as its activation is 27.5

Given item CC(C)c1cc(C(=O)N2Cc3ccc(CN4CCN(C)CC4)cc3C2)c(O)cc1O , the value recorded as its activation is -13.4

Given item Cc1oc(=O)oc1COC(=O)[C@@H]1N2C(=O)[C@@H](NC(=O)[C@H](N)c3ccccc3)[C@H]2SC1(C)C , the value recorded as its activation is -5.08

Given item CCCC(N[C@@H](C)C(=O)N1[C@H](C(=O)O)C[C@@H]2CCCC[C@@H]21)C(=O)OCC (stereo partly specified) , the value recorded as its activation is 2.39

Given item O=C(OCC1OC(Oc2ccc(O)cc2COC(=O)C2(O)C(O)CCC(=O)C2OC(=O)C2C=CCC2)C(OC(=O)C2C=CCC2)C(O)C1O)C1C=CCC1 (stereo unspecified) , the value recorded as its activation is -3.05
